assay: Oral bioavailability in Sprague-Dawley rat at 1 mg/kg; type: ADME, organism-based; conditions: in vivo
Reported bioavailability values are given for each entry in this list.
recorded-endpoint: bioavailability (%)

# smiles-notation, assay-value
data = [
    ("N#Cc1ccc(CNC(=O)N(c2cccc(F)c2)C2CCN(CCC3(c4cccc(F)c4)CCN(C(=O)c4nsnc4O)CC3)CC2)cc1", 0),
    ("N#Cc1ccc(CNC(=O)N(c2cccc(F)c2)C2CCN(CCC3(c4cccc(F)c4)CCN(C(=O)c4c(Cl)cncc4Cl)CC3)CC2)cc1", 50),
    ("N#Cc1ccc(CNC(=O)N(c2cccc(F)c2)C2CCN(CCC3(c4cccc(F)c4)CCN(C(=O)C4CCOCC4)CC3)CC2)cc1", 11),
    ("CC(C)(C)C(=O)N1CCC(CCN2CCC(N(C(=O)NCc3ccc(C#N)cc3)c3cccc(F)c3)CC2)(c2cccc(F)c2)CC1", 11),
]
